This collection of values is drawn from the nanobody polyreactivity screen of Harvey et al. (2022).

Assay: yeast display, Sf9 membrane polyspecificity reagent, FACS + sequencing; frameworks hold sequencing errors

- Sequence Data: "QVQLVESGGGLVQAGGSLRLSCAASGFTFWRYAMGWYRQAPGKERELVAAISYSGGSTYYADSVKGRFTISRDYAKNTVYLQMNSLKPEDTAVYYCNAETGYGVYRTKYGYWGQGTQVTVSS"
  polyreactivity (PSR sort gate): "high polyreactivity"
- Sequence Data: "QVQLVESGGGLVQAGGSLRLSCAASGRTFRYYAMGWYRQAPGKERELVAAIRTSGSTNYADSVKGRFTISRDNAKNTVYLQMNSLKPEDTAVYYCAAQPYWRYPYRAERDYWGQGTQVTVSS"
  polyreactivity (PSR sort gate): "high polyreactivity"
- Sequence Data: "QVQLVESGGGLVQAGGSLRLSCAASGIIFGKNAMGWYRQAPGKERELVAAISSSGGSTYYADSVKGRFTISRDNAKNTVYLQMNSLKPEDTAVYYCATERGSRRSGSRMDYWGQGTQVTVSS"
  polyreactivity (PSR sort gate): "high polyreactivity"

* * *

Test: yeast display, Sf9 membrane polyspecificity reagent, FACS + sequencing; frameworks hold sequencing errors
Quantity Name: polyreactivity (PSR sort gate)

- Sequence Data: "QVQLVESGGGLVQAGGSLRLSCAASGITFRYYAMGWSRQAPGKERELVADITRSGGTTYYADSVKGRFTISRDNAKNTVYLQMNSLKPEDSAVYYCAVDLNWWGWGLLQYDYWGQGTQVTVSS"
  Quantity Name: "polyreactivity (PSR sort gate)"
  Value Observed: "high polyreactivity"
- Sequence Data: "QVQLVESGVGLVQAGGSLRLSCAASGSTFDDYAMGWYRQAPGKERELVAAINKTGGSTNYADSVKGRFTISRDNAKNTVYLQMNSLKPEDNAVYYCAADGSNYSASVAAFPYRVDYWGQGTQVTVSS"
  Quantity Name: "polyreactivity (PSR sort gate)"
  Value Observed: "low polyreactivity"
- Sequence Data: "QVQLVESGGGLVQAGGSLRLSCAASGSTFSGNVMGWYRQAPGKERALVAAIRRSSGSTYYADSVKGRFTISRDNAKNTVYLQMNSLKPEDTAVYYCATDVTKIRQGDYYYWGQGTQVTVSS"
  Quantity Name: "polyreactivity (PSR sort gate)"
  Value Observed: "high polyreactivity"
- Sequence Data: "QVQLVESGGGLVQAGGRLRLSCAASGLILSSNALGWYRQAPGKARELVAAITWDGDRTYADSVKGRFTISRDNAKNTVYLQQNSLKPEDTAVYYCAADKQYYWYDWSYEYWGQGTQVTVSW"
  Quantity Name: "polyreactivity (PSR sort gate)"
  Value Observed: "low polyreactivity"
- Sequence Data: "QVQLVESGGGLLQAGGSLRLSFAASGFTFGRYAMGWYRQAPGKERELVAAISTSGGRTYYADSVKGRFTISRDNAKNTVYLQMNSLKPEDTAVYYCAAEQRRFTGYDYWGQGTQVTVSS"
  Quantity Name: "polyreactivity (PSR sort gate)"
  Value Observed: "high polyreactivity"
- Sequence Data: "QVQLVESGGGLVQAGGSLRLSCAASGYTFSLNAMGWYRQAPGKERELVAAISGRTGRTYYADSVKGRFTISRDNAKNTVYLQMNSLKPEDTAVYYGNKVYPYQRRTRFDYWGQGTQVTVSS"
  Quantity Name: "polyreactivity (PSR sort gate)"
  Value Observed: "high polyreactivity"
- Sequence Data: "QVQLLESGGGLFQPGGSLRLSCAASGRTFDGNVMGWYRQAPGKETELVAAITASGGRTYYADSVKGRFTISSDNAKNTVYLQMNSLKAEDTAVYYCNAGIRRSRGTMDYWGQGTQVTVSS"
  Quantity Name: "polyreactivity (PSR sort gate)"
  Value Observed: "high polyreactivity"
- Sequence Data: "QVQLVESGGGLVQAGGSLRLSCAASGFTFGWYAMGWYRQAPGKEREFVAAISRSGGSTYYADSVKGRFTISRDNAKNTVYLQMNSLKPEDTAVYYCAAYIIGDTHAEYDYWGQGTQVTVSS"
  Quantity Name: "polyreactivity (PSR sort gate)"
  Value Observed: "high polyreactivity"
- Sequence Data: "QVQLVESGGGLVQAGGSLRLSCAASGRIFVYYAMGWYRQAPGKERELVAAITSGGGSTYYADSVKGRFTISRDNAKNTVYLQMNSLKPEDTAVYYCNKGYYYPYDYWGQGTQVTVSS"
  Quantity Name: "polyreactivity (PSR sort gate)"
  Value Observed: "high polyreactivity"
- Sequence Data: "QDQLVESRGVLVQAGGSLRLTCAASGRTFYLNAMGWNRQATGKEREFVAAITWSSGSTYYADSVKGRFTISRDNAMNTVYLQMNSLKPEDTAVYYCAAAGRWSAYMYSWGQGTQVTVSS"
  Quantity Name: "polyreactivity (PSR sort gate)"
  Value Observed: "high polyreactivity"
- Sequence Data: "QVQLVESGGGLVQAGGSLRLSCAASGSIFYVYAMGWYRQSPGKERELVAAITSSGTTNYADSVKGRFTISRDNAKNTVYLLMNSLKPEDSAVYYCAADPDSGHVRFDYWGQGTQVTVSS"
  Quantity Name: "polyreactivity (PSR sort gate)"
  Value Observed: "low polyreactivity"

* * *

Test: yeast display, Sf9 membrane polyspecificity reagent, FACS + sequencing; frameworks hold sequencing errors
Quantity Name: polyreactivity (PSR sort gate)

- Sequence Data: "QVQLVESGGGLVQAGGSLRLSCAASGSIFDTYSMGWYIQAPGKERELVAAISSGGRTYYADSVKGRFTISRDNAKNTVYLQMNSLKPEDTAVYYCNARYHARYGGDYWGQGTQVTVSS"
  Quantity Name: "polyreactivity (PSR sort gate)"
  Value Observed: "high polyreactivity"
- Sequence Data: "QVQLVESGGGLVQAGGSLRLSCAASGSTFAGNAMGWYRQAPGKEREFVAAITISVGSTYYADSVKGRFTISRDNAKNTVYLQMNSLTPEDTAVYYCAADFAYYVSLPSRFVYAGYYYWGQGTQVTVTS"
  Quantity Name: "polyreactivity (PSR sort gate)"
  Value Observed: "low polyreactivity"
- Sequence Data: "QFQLVESGGGLVQAGGSLRLSCAASGFIFSTYTMGWYRQAPGKERELVAAISSGGGTYYADSVKGRFTISRDNAKNTVYLQMNSLKPEDTAVYYCAALVYSSYPAGWYDYWGQGTQVTVSS"
  Quantity Name: "polyreactivity (PSR sort gate)"
  Value Observed: "high polyreactivity"
- Sequence Data: "QVQLVESGGGLVQAGGSLRLSCAASGFTFRFYVMVWYRLAPGKERELVAAITASGGTTYYADSVKGRFTISRDNAKNSVYLQMNSLKPEDTAVYYCNALYYYLYGYDYWGQGTQVTVSS"
  Quantity Name: "polyreactivity (PSR sort gate)"
  Value Observed: "high polyreactivity"
- Sequence Data: "QVQLVESGGGLVQAGGSLRLSCAASGRTFYLNAMGWYRQAPGKERELVAAIRFSGGSTYYADSVKGRFTISRDNAKNTVLLQMNSLKPEDTAVYYCNAGPYHSLYPTVSEYGYWGQGTQVTVSS"
  Quantity Name: "polyreactivity (PSR sort gate)"
  Value Observed: "low polyreactivity"
- Sequence Data: "QVQLVESGGGLVQAGGSLRLSCAASGITFDGYAMGWYRQAPGKERELVAAITYSGGRTYYADSVKGRFTISRDNAKNTVYLQMNSLKPEDTAVYYCAVVSRRLYDYDYWGQGTQVTVSS"
  Quantity Name: "polyreactivity (PSR sort gate)"
  Value Observed: "high polyreactivity"
- Sequence Data: "QVQLVESVVGLVQAGGSLRLSCAASGFIFVVYAMGWYRQAPGKERELVAAITNGGITYYADSVKGRFTISRDNAKNTVYLQMNSLKPEDTAVYYCNAQYTDYDGYVGYYYWGQGTQVTVSS"
  Quantity Name: "polyreactivity (PSR sort gate)"
  Value Observed: "low polyreactivity"
- Sequence Data: "QVQLVESGGGLVQAGGSLRLSCAASGLIFYYYAMGWYRQAPGKEREFVAAINSSGDSTYYADSVKGRFTISRDNAKNTVYLQMNSLKPEDTAVYYCNVDWYLHEYDYWGQGTQVTVSS"
  Quantity Name: "polyreactivity (PSR sort gate)"
  Value Observed: "low polyreactivity"
- Sequence Data: "QVQLVESGGVLVQAGGCLRLSCAASGSIFSVNTMGWYRQAPGKERELVATIRTGDSTNYADSVKGRFTISRDNAKNTVYLQMNSLKPEDTAVYYCAAEWSSLNFEYWGQGSQVTVSS"
  Quantity Name: "polyreactivity (PSR sort gate)"
  Value Observed: "low polyreactivity"
- Sequence Data: "QVQIVVSGGGLVQAGGRRRLSCAASGRFFWVYAMGWYRQAPGKERELVAAISRSGGITSYADSVKGRYTISRDNANYTVYLQMNSLKPEDTAVYCCAARSYFDGFYYWGQGAQVTVSS"
  Quantity Name: "polyreactivity (PSR sort gate)"
  Value Observed: "high polyreactivity"
- Sequence Data: "QVQLVESGGGLVQAGGSLRLSSAASGFTFRGYGMGWYRQAPAKERELVAAITSSGGSTYYADSVKGRFTISRDNAKNTVYLQMNSLKPEDTAVYYCAADRYTRYRYNYWGQGTQVTVSS"
  Quantity Name: "polyreactivity (PSR sort gate)"
  Value Observed: "high polyreactivity"
- Sequence Data: "QVQLVESGGGLVQAGGSLRLSCAASGFIFGDYAMGWYRQAPGKERELVAAITWSGGRTYYADSVKGRFTISRDNAKNTVYLQMNSLKPEDTAVYYCSAVWYTSRQKYDYWGQGTQVTVSS"
  Quantity Name: "polyreactivity (PSR sort gate)"
  Value Observed: "low polyreactivity"
- Sequence Data: "QVQLVESGGGLVQAGGSLRLSCAPSGRIFYGYAMGWYRQAPGKERELVAAITSGSRTNYADSVKGRFTISRDNAKNTVYLQMNSLKPEDTAVYYCHSLYGSYLYSLVHTSRYDYWGQGSQVTVSS"
  Quantity Name: "polyreactivity (PSR sort gate)"
  Value Observed: "low polyreactivity"
- Sequence Data: "QVQLVESGRRLVQAGGSLRLSCAASGLTLYKNGMGWYRKAPGQVRELVAVISRSGGRTYYADSVKGRFTISRDNAKNTVYVQMNSLKPEDTAVYYCAARQYGPRYTYYYWGQGTQVTVSS"
  Quantity Name: "polyreactivity (PSR sort gate)"
  Value Observed: "high polyreactivity"
- Sequence Data: "QVQLVESGGGLVQAGGSLRLSCAASGLNFYWYAMGWYRQAPGKERELFAAINWSGGRTHYADSVKGRFTMSRDNANNTVYFQMNCLKPEDTAVYYCAASPYWFTRYYPKTRETMDYWGQGTQVTVST"
  Quantity Name: "polyreactivity (PSR sort gate)"
  Value Observed: "high polyreactivity"
- Sequence Data: "QVQLVESGGGLVLAGGSLRLSCAASGFTFRKNAMGWYRQARGKERELVAAINSSGGSTYYADSVKGRFTISRDNAKNTVYLQMNSLKPEDTAVFYCNAVGRSLARPRGDYWGQGTQVTVSS"
  Quantity Name: "polyreactivity (PSR sort gate)"
  Value Observed: "high polyreactivity"
- Sequence Data: "QVQLVESCGGLVQAGGSLRLICAASGITFYRNAMGGYRQAPWKERELVAAITRRGGSTYYADSVKGRFTISRDNAKNTVYCQMNIVKPEDTAVYYCAAQDATRGDGYWGQGTQVTVSS"
  Quantity Name: "polyreactivity (PSR sort gate)"
  Value Observed: "high polyreactivity"
- Sequence Data: "QVQLVESGGGLVQAGGSLRLICAASGFIFSAYAMGWYRQAPGKERELVAAISYSGGTTYYADSVKGRFTISRDNAKNTVYLQMNSLKPEDTAVYYCAAGVGYWGQGTQVTVSS"
  Quantity Name: "polyreactivity (PSR sort gate)"
  Value Observed: "high polyreactivity"
- Sequence Data: "QVQLVESGGGLVQAGGSLRLSCAASGGNFAEYVMGWYRQAPGKERELVAAIDWSGGSTYYADSVKGRFTISRDNAKNTVYLQMNSLKPEDTAVYYCNADGPLDRYEYWGQGTQVTVSS"
  Quantity Name: "polyreactivity (PSR sort gate)"
  Value Observed: "low polyreactivity"
- Sequence Data: "QVQLVESGGGLVQAGGSLRLSCADSGSIFFFYAMGWYRQAPGKERELVAAISKSPSSTYYADSVKGRFTISRDNAKNTVYLQMNSLKPEDTAVYYCNTGYSGIQYYYWGQGAQVTVSS"
  Quantity Name: "polyreactivity (PSR sort gate)"
  Value Observed: "low polyreactivity"
- Sequence Data: "QDQLVESGGGLVQAGGSLRLSCAASGRTFTFNTMGWYRQAPGKERELVAAIVGDGTTNYADSVKGRFTISRDNAKNTVYLQMYSLKPEDTAVYYCAADFLYSFWYEPTFDYWGQGTQVTVSS"
  Quantity Name: "polyreactivity (PSR sort gate)"
  Value Observed: "low polyreactivity"
